Hello, the source for this data is patent US9873709B2, in case you need it.

# Tested on: JAK1-dependent STAT6 phosphorylation downstream of IL-13 stimulation in TF-1 human erythroleukemia cells
# procedure details: cells
# run conditions: TF-1, read-out: IL-13-pSTAT6 IC50
pIC50: −log10 of the molar value.
Rule: Criterion met for pIC50 not less than 7, Criterion not met for anything less.

Before answering, review these 3 worked examples.
compound	answer label
CCOC(=O)N1CC=C(c2cccn3nc(Nc4ccc(C(=O)NCCc5ccncc5)cc4)nc23)CC1	Criterion met
O=C(c1ccc(Nc2nc3c(N4CCC(O)(c5ccc(Cl)cc5)CC4)cccn3n2)cc1)N1CCC(N2CCOCC2)C1 (stereo not drawn)	Criterion met
O=C(CCC(F)(F)F)N1CC=C(c2cccn3nc(Nc4ccc(C(=O)N5CCCCC5c5cccnc5)cc4)nc23)CC1 (stereo not drawn)	Criterion met

Determine whether this compound has pIC50 no lower than 7: CC1CC(C(=O)N2CC=C(c3cccn4nc(Nc5ccc(C(=O)N(C)C6CCN(C)CC6)cc5)nc34)CC2)C1 (stereo not drawn)
Criterion met

Again, but for "CCOC(=O)N1CC=C(c2cccn3nc(Nc4ccc(C(=O)N5CC6CN(C)CC(C5)O6)cc4)nc23)CC1"
Criterion met

Again, but for "C[C@@H]1CN(CCNC(=O)c2ccc(Nc3nc4c(N5CCC(CO)(c6ccc(Cl)cc6)CC5)cccn4n3)cc2)C[C@H](C)O1"
Criterion met

Again, but for O=C(CCC(F)(F)F)N1CC=C(c2cccn3nc(Nc4ccc(C(=O)N5CCN6CCCCC6C5)cc4)nc23)CC1 (stereo not drawn)
Criterion met

Again, but for "O=C(NCCc1ccccn1)c1ccc(Nc2nc3c(C4=CCN(C(=O)CCC(F)(F)F)CC4)cccn3n2)cc1"
Criterion met
